tested-on: GlcNAc(a1-4)Gal(b1-4)GlcNAc(b1-3)Gal(b1-4)[Fuc(a1-3)]GlcNAc(b1-3)Gal(b1-4)[Fuc(a1-3)]GlcNAc
protocol-notes: glycan array binding signal (z-score within array); higher = stronger binding
recorded-conditions: glycan notation: IUPAC condensed, linker removed
Only a selection was taken, and the strongest signals are over-represented in it overall.

[
  {
    "binder": "HA-00510 (Pseudomonas aeruginosa), Q02V39_PSEAB (protein) GVPIVNIATPNGAGLSNNHFRDYNVGANGLILNNATGKTQGTQLGGIILGNPNLKGQAAQVILNQVTGGNRSTLAGYTEVAGQSARVIVANPHGITCQGCGFINTPRATLTTGKPIMDGQRLERFQVDGGDIVVEGAELNVGNLEQFDLITRSAKLNAKLYAKNLNIVTGRNDVQADSLQATPRAADGSEKPQLAIDSSALGGMYAGAIRLVGTEQGVGVKLAGDMAASGGDIRIDASGKLSLAQASSQGDLKIAAQAVELNGKTYAGGSAEIRSAEELVNRQS",
    "glycan array binding signal (z-score)": 0.682
  },
  {
    "binder": "BC2LB (Burholderia cenocepacia), B4EH85_BURCJ (protein) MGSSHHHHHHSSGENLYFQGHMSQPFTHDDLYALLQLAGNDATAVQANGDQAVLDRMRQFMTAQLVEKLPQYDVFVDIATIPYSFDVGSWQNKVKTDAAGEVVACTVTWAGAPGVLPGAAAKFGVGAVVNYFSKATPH",
    "glycan array binding signal (z-score)": 1.79
  },
  {
    "binder": "SSR1 (Sclerotium rolfsii), A0A0M3KL30 (protein) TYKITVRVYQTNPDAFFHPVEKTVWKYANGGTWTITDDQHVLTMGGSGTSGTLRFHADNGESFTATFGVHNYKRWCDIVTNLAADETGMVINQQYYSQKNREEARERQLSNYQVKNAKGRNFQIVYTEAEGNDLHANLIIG",
    "glycan array binding signal (z-score)": 3.01
  },
  {
    "binder": "RS2L (Ralstonia solanacearum), B5RXL5_RALSO (protein) MAQQGVFTLPANTSFGVTAFANAANTQTIQVLVDNVVKATFTGSGTSDKLLGSQVLNSGSGAIKIQVSVNGKPSDLVSNQTILANKLNFAMVGSEDGTDNDYNDGIAVLNWPLG",
    "glycan array binding signal (z-score)": -0.12
  },
  {
    "binder": "BIp1-His (Cryptococcus neoformans) (protein) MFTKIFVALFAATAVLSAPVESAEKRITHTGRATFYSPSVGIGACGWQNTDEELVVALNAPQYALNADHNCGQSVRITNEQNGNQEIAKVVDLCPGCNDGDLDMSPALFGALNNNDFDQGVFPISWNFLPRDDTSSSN",
    "glycan array binding signal (z-score)": 2.19
  }
]
